Tested on: stalk rust (Puccinia graminis f. tritici)
Format: in vivo
experimental.context: in vivo
The entries below are paired with their reported Weight of 1,000 grains.
endpoint.name: Weight of 1,000 grains (g)

In [3]: df
Out[3]:
                                   molecule  measurement_unit  data_value
0  CC(=O)OC(C(Cl)(Cl)Cl)P(=O)(Oc1cc(C)cc(C)c1)Oc1cc(C)cc(C)c1 (centres unmarked) [XXVI]                 g        16.7
1  CCCCCCC(=O)OC(C(Cl)(Cl)Cl)P(=O)(Oc1ccc(C)cc1)Oc1ccc(C)cc1 (centres unmarked) [XXI]                 g        18.2
2  CCCCCCCCc1ccc(OP(=O)(Oc2ccc(CCCCCCCC)cc2)C(OC(=O)CC)C(Cl)(Cl)Cl)cc1 (centres unmarked) [XXV]                 g        16.0
3  Cc1ccccc1OP(=O)(Oc1ccccc1C)C(OC(=O)c1ccccc1)C(Cl)(Cl)Cl (centres unmarked) [XI]                 g        17.8
4  CCCCCCC(=O)OC(C(Cl)(Cl)Cl)P(=O)(Oc1cc(C)cc(C)c1)Oc1cc(C)cc(C)c1 (centres unmarked) [XXIX]                 g        14.8

Data origin: patent US4212862A
